Where these numbers come from: patent US11464770B2

Test system: blood cancer cell lines (e.g. HL-60, Jurkat, Raji, Ramos, Daudi, MOLT-4)
assay_method_text: Cell based assay, cell viability (CellTiter-Glo), blood cancer cell lines
protocol_conditions: Homo sapiens, blood cancer cell line Raji, 72 hours, read-out: IC50, Raji
pIC50: −log10 of the molar value.
measured_metric: pIC50

{"columns": ["compound", "test_result"],
 "data": [
  ["CC(=O)c1c([S+](C)[O-])n(S(=O)(=O)C(F)(F)F)c2c(Br)ccc(Cl)c2c1=O (centres unmarked) [Compound 36]", "< 5.70"],
  ["CC(=O)c1c(SCC#N)[nH]c2c(Br)ccc(Cl)c2c1=O [Compound 66]", "< 5.70"],
  ["CC(=O)c1c([S+](C)[O-])n(S(=O)(=O)c2ccc(C(C)(C)C)cc2)c2c(Br)ccc(Cl)c2c1=O (centres unmarked) [Compound 42]", "< 5.70"],
  ["CC(=O)c1c([S+]([O-])CC#N)[nH]c2c(Br)ccc(Cl)c2c1=O (centres unmarked) [Compound 65]", "< 5.70"],
  ["COc1cc(C[S+]([O-])c2[nH]c3c(Br)ccc(Cl)c3c(=O)c2C(C)=O)cc(OC)c1 (centres unmarked) [Compound 59]", 5.94],
  ["CC(=O)c1c([S+]([O-])Cc2ccc(C(=O)c3ccccc3)cc2)[nH]c2c(Br)ccc(Cl)c2c1=O (centres unmarked) [Compound 63]", "< 5.70"],
  ["CC(=O)c1c([S+]([O-])Cc2cc(C)on2)[nH]c2c(F)ccc(F)c2c1=O (centres unmarked) [Compound 82]", "< 5.70"],
  ["CC(=O)c1c([S+]([O-])Cc2ccc(C(F)(F)F)o2)[nH]c2c(Br)ccc(Cl)c2c1=O (centres unmarked) [Compound 72]", 6.03]
]}

---

System: liver cancer cell lines
assay_method_text: Cell based assay, cell viability (CellTiter-Glo), liver cancer cell lines
protocol_conditions: Homo sapiens, SK-HEP1; SK-HEP-1 cell line
pIC50: −log10 of the molar value.

{"columns": ["compound", "pIC50"],
 "data": [
  ["CC(=O)c1c(SCc2ccccc2)n(C(=O)c2ccc(Br)cc2)c2c(Br)ccc(Cl)c2c1=O", "< 5.70"],
  ["CC(=O)c1c(S)[nH]c2c(Br)ccc(Cl)c2c1=O", "< 5.70"],
  ["CC(=O)c1c([S+]([O-])Cc2ccccc2)n(C(=O)c2ccc(Br)cc2)c2c(Br)ccc(Cl)c2c1=O (stereo not drawn)", "< 5.70"],
  ["CC(=O)c1c([S+]([O-])Cc2ccc(C(F)(F)F)o2)[nH]c2c(F)ccc(F)c2c1=O (stereo not drawn)", "< 5.70"],
  ["CC(=O)c1c([S+]([O-])c2ccc(Br)cc2)[nH]c2c(Br)ccc(Cl)c2c1=O (stereo not drawn)", "< 5.70"],
  ["CC(=O)c1c([S+]([O-])Cc2ccc(C#N)s2)[nH]c2c(Br)ccc(Cl)c2c1=O (stereo not drawn)", 5.92],
  ["CC(=O)c1c([S+]([O-])Cc2c(F)cccc2Cl)[nH]c2c(Br)ccc(Cl)c2c1=O (stereo not drawn)", 6.06],
  ["CC(=O)c1c([S+]([O-])Cc2ccccc2)nc2c(Br)ccc(Cl)c2c1O (stereo not drawn) [Compound 53]", "< 5.70"],
  ["CC(=O)c1c([S+]([O-])Cc2ccccc2C#N)[nH]c2c(Br)ccc(Cl)c2c1=O (stereo not drawn)", 6.11],
  ["CC(=O)c1c([S+](C)[O-])n(C(C)=O)c2c(Br)ccc(Cl)c2c1=O (stereo not drawn)", "< 5.70"],
  ["CC(=O)c1c(S(C)(=O)=O)n(S(=O)(=O)c2ccc(C(C)(C)C)cc2)c2c(Br)ccc(Cl)c2c1=O", "< 5.70"],
  ["CC(=O)c1c([S+]([O-])Cc2ccc(S(F)(F)(F)(F)F)cc2F)[nH]c2c(Br)ccc(Cl)c2c1=O (stereo not drawn)", 5.98],
  ["COCSc1[nH]c2c(Br)ccc(Cl)c2c(=O)c1C(C)=O", "< 5.70"],
  ["CC(=O)c1c([S+]([O-])Cc2nonc2C)[nH]c2c(Br)ccc(Cl)c2c1=O (stereo not drawn)", "< 5.70"],
  ["CC(=O)c1c(SCc2cccc(I)c2)[nH]c2c(Br)ccc(Cl)c2c1=O", "< 5.70"],
  ["CC(=O)c1c(SCc2cc(F)cc(F)c2)[nH]c2c(Br)ccc(Cl)c2c1=O", "< 5.70"],
  ["CC(=O)c1c(Sc2ccc(Br)cc2)[nH]c2c(Br)ccc(Cl)c2c1=O", "< 5.70"],
  ["COc1cccc(C[S+]([O-])c2[nH]c3c(Br)ccc(Cl)c3c(=O)c2C(C)=O)c1 (stereo not drawn)", 5.84],
  ["Cc1cc(C[S+]([O-])c2[nH]c3c(Cl)ccc(Cl)c3c(=O)c2C(=O)C2CC2)no1 (stereo not drawn)", 5.97],
  ["CC(=O)c1c([S+]([O-])Cc2cccc(F)c2)[nH]c2c(Br)ccc(Cl)c2c1=O (stereo not drawn)", 5.87],
  ["CC(=O)c1c([S+]([O-])Cc2ccc(C#N)cc2)[nH]c2c(Br)ccc(Cl)c2c1=O (stereo not drawn)", 5.85],
  ["CC(=O)c1c([S+]([O-])Cc2cc(C)on2)[nH]c2c(F)ccc(F)c2c1=O (stereo not drawn)", "< 5.70"],
  ["Cc1cc(C[S+]([O-])c2[nH]c3c(Br)ccc(Cl)c3c(=O)c2C(=O)C2CC2)no1 (stereo not drawn)", 5.71],
  ["COc1ccccc1[S+]([O-])c1[nH]c2c(Br)ccc(Cl)c2c(=O)c1C(C)=O (stereo not drawn)", "< 5.70"],
  ["CSc1c(C(C)=O)c(=O)c2c(Cl)ccc(Br)c2n1S(C)(=O)=O", "< 5.70"],
  ["CC(=O)c1c(SCc2ccc([N+](=O)[O-])cc2)[nH]c2c(Br)ccc(Cl)c2c1=O", "< 5.70"],
  ["COc1cc(C[S+]([O-])c2[nH]c3c(Br)ccc(Cl)c3c(=O)c2C(C)=O)cc(OC)c1 (stereo not drawn)", 6.04]
]}
